# System: PC12 cells that express mutant G93A SOD1
# Protocol notes: Mutant SOD1-induced cytotoxicity protection assay
# Condition notes: rat, 48 h
Readout type: Corresponding % viability

Recorded results for 4 molecules are shown here.
| Molecule | Test system | Corresponding % viability |
| --- | --- | --- |
| O=c1cc(CSc2ccc(Cl)cc2)[nH][nH]1 [CMB-053529-1] | PC12 cells that express mutant G93A SOD1 | 93% |
| O=c1cc(COc2cc(C(F)(F)F)cc(C(F)(F)F)c2)[nH][nH]1 | PC12 cells that express mutant G93A SOD1 | 120% |
| O=c1cc(CSc2cc(Cl)cc(Cl)c2)[nH][nH]1 [CMB-086835-1] | PC12 cells that express mutant G93A SOD1 | 134% |
| O=c1cc(CSCCOc2ccccc2)[nH][nH]1 | PC12 cells that express mutant G93A SOD1 | 97% |

(Q) What does the record list as Corresponding % viability for "COc1ccc(SCc2cc(=O)[nH][nH]2)cc1" ?
(A) 102%

(Q) Bench note: what Corresponding % viability did "Cn1[nH]c(COc2ccc(Cl)cc2)cc1=O" show?
(A) 107%
